Source of measurements: patent US20260234738A1

# systemName: SARS-COV-2 spike protein receptor binding domain (amino acids Arg319 to Phe541) expressed with the F (SARS-CoV-2)
outcomeMeasure: Kd (pM)
Record the value in pM, omitting the unit from your answer.

Solved cases below.
binder	Kd [pM]
mAb11008 (antibody, V domains shown) VH: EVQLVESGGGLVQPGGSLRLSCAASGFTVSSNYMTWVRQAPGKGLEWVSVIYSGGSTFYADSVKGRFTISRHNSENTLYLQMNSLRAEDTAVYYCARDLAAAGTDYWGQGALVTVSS VL: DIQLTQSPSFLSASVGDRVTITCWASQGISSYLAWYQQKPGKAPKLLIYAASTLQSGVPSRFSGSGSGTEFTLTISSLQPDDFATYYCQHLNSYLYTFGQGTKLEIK	715
mAb11004 (antibody, V domains shown) VH: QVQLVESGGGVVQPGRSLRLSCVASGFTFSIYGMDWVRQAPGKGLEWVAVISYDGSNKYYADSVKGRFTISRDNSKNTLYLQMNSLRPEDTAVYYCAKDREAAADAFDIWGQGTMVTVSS VL: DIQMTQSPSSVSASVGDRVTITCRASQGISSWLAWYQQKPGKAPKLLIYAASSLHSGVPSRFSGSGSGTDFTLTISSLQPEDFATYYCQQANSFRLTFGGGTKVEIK	191

Would you kindly look at the next entry?
### Prompt I am curious: what Kd value has been reported for mAb10998 (antibody, V domains shown) VH: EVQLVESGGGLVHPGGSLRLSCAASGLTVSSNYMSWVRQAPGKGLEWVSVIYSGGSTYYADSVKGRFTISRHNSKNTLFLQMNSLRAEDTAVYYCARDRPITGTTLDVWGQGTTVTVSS VL: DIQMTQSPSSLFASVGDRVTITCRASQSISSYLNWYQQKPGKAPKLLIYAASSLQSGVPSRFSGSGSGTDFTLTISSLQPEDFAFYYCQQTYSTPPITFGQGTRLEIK ?
### Response 1580
